studySystem: hGYS1 enzyme (recombinant hGYS1/GN1 protein) (Homo sapiens (Human), UniProt P13807)
Sequence (P13807 whole entry): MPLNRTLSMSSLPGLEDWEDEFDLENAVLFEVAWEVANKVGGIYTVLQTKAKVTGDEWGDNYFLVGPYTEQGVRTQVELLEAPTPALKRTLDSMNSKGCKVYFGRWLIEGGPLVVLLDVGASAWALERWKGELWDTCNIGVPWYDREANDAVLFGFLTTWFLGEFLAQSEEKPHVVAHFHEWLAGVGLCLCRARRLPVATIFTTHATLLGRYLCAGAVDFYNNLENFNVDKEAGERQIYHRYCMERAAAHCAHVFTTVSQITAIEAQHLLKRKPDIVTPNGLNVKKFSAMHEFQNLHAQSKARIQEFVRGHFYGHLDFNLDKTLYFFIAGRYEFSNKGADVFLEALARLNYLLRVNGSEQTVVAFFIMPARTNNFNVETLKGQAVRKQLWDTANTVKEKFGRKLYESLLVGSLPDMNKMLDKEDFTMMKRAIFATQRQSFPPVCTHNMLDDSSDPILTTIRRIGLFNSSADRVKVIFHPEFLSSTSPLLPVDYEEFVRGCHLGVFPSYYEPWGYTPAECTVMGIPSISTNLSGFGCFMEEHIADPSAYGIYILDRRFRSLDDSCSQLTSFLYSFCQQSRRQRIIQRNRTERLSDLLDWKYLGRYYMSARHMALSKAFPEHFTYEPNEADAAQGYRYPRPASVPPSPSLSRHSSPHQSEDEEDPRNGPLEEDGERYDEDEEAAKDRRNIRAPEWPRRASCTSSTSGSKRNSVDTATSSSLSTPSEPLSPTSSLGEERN
Sequence (P46976 whole entry partner): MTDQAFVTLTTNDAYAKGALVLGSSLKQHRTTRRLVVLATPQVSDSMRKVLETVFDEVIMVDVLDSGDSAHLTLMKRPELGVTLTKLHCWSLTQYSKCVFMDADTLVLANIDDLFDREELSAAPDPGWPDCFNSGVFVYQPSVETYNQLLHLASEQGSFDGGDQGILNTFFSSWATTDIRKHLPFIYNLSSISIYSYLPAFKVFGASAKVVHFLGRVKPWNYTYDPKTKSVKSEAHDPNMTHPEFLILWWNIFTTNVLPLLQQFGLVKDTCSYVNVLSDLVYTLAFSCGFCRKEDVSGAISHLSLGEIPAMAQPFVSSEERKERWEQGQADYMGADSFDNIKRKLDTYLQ
methodDescription: GYS1 coupled enzyme assay (PK/LDH)
measurementConditions: hGYS1/GN1 50 nM, UDP-Glucose 0.8 mM, G6P 1 mM; geometric mean of at least 2 runs
I'd appreciate it if you could supply IC50 values for the items below.
Report as a plain number; the unit µM is understood.

stdin: What value of IC50 has been recorded for this entry: Cc1cnc(CC(=O)N2C[C@H](F)C[C@H]2C(=O)N[C@@H](c2ccccc2)c2ccc(C(C)C)c(F)n2)o1 [Compound 408]
stdout: 0.008

stdin: Cool, now Cc1nccc(N(C)CC(=O)N2C[C@H](F)C[C@H]2C(=O)N[C@@H](c2ccccc2)c2ccc(C3CC3)c(F)c2)n1 [Compound 476]
stdout: 0.039

stdin: Cool, now CC(=O)N1C[C@H](C(=O)N2C[C@H](F)C[C@H]2C(=O)N[C@@H](c2ccccc2)c2ccc(C(C)C)cc2)[C@H]2OCC[C@H]21 [Compound 166]
stdout: 0.056

stdin: Cool, now Cc1cc(C(F)F)n(CC(=O)N2C[C@H](F)C[C@H]2C(=O)N[C@@H](c2ccccc2)c2ccc(C(C)C)c(F)n2)n1 [Compound 803]
stdout: 0.004

stdin: Cool, now CC(=O)N1CC(Oc2ccc(C(=O)N3C[C@H](F)C[C@H]3C(=O)N[C@@H](c3ccccc3)c3ccc(C(C)C)cc3)cc2)C1 [Compound 112]
stdout: 0.854

stdin: Cool, now O=C(N[C@@H](c1ccccc1)c1ccc(C2CC2)c(F)n1)[C@@H]1C[C@@H](F)CN1C(=O)Cc1nc(C(F)(F)F)co1 [Compound 738]
stdout: 0.105

stdin: Cool, now CC(C)c1ccc([C@@H](NC(=O)[C@@H]2C[C@@H](F)CN2C(=O)C(=O)N(C)C)c2ccccc2)cc1 [Compound 115]
stdout: 0.493

stdin: Cool, now CC(C)c1ccc([C@@H](NC(=O)[C@@H]2C[C@@H](F)CN2C(=O)C(O)C(C)C)c2ccccc2)cc1 (some centres unmarked) [Compound 185]
stdout: 0.026

stdin: Cool, now CCn1ccnc(CC(=O)N2C[C@H](F)C[C@H]2C(=O)N[C@@H](c2ccccc2)c2ccc(C3CC3)c(F)n2)c1=O [Compound 753]
stdout: 0.021

stdin: Cool, now O=C(N[C@@H](c1ccccc1)c1ccc(C2CC2)c(F)n1)[C@@H]1C[C@@H](F)CN1C(=O)Cn1ccc(C(F)F)n1 [Compound 729]
stdout: 0.039

stdin: Cool, now CC(C)c1ccc([C@@H](NC(=O)[C@@H]2[C@H]3C[C@H]3CN2C(=O)Cc2cnn[nH]2)c2ccccc2)nc1F [Compound 415]
stdout: 0.048
